# Test system: 313798-341-R-J2-PDC spheroids, viability;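 note: spheroids exposed to compounds for seven days; 100% = DMSO vehicle control viability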
# method: Anticancer human tumor 313798-341-R-J2-PDC patient-derived cervical squamous cell carcinoma cell line growth inhibition [PI3K]
# measurement_parameters: second compound 0.1 µM; first compound 3.16 µM; hits give low values; spheroids with HUVEC and MSC
Quick list: viability, T/C per entry.

{"molecule": "C[C@@H](NC(=O)c1ncnc(N)c1Cl)c1ncc(C(=O)Nc2cc(C(F)(F)F)c(Cl)cn2)s1 + COc1c(OCCCN2CCOCC2)ccc2c3n(c(=NC(=O)c4cnc(N)nc4)nc12)CCN3", "viability, T/C, %": 50.5}
{"molecule": "CC(Cn1ccc(-c2ccc(C#N)c(Cl)c2)n1)NC(=O)c1cc(C(C)O)[nH]n1 (stereo not given) + CC(Nc1ccc2c(c1)OCCn1cc(N3C(=O)OCC3C(F)F)nc1-2)C(N)=O", "viability, T/C, %": 99.1}
{"molecule": "CCCS(=O)(=O)Nc1ccc(F)c(C(=O)c2c[nH]c3ncc(-c4ccc(Cl)cc4)cc23)c1F + COc1c(OCCCN2CCOCC2)ccc2c3n(c(=NC(=O)c4cnc(N)nc4)nc12)CCN3", "viability, T/C, %": 33.9}
{"molecule": "CC(C)NCC(C(=O)N1CCN(c2ncnc3c2C(C)CC3O)CC1)c1ccc(Cl)cc1 (stereo not given) + CC(Nc1ncnc2nc[nH]c12)c1cc2cccc(Cl)c2c(=O)n1-c1ccccc1", "viability, T/C, %": 36.9}
{"molecule": "CC1(C)CCC(Nc2ncc(C(F)(F)F)c(-c3c[nH]c4c(P(C)(C)=O)c(C#N)ccc34)n2)CN1 (stereo not given) + COc1c(OCCCN2CCOCC2)ccc2c3n(c(=NC(=O)c4cnc(N)nc4)nc12)CCN3", "viability, T/C, %": 21.5}
{"molecule": "C#Cc1c(F)ccc2cc(O)cc(-c3ncc4c(N5CC6CCC(C5)N6)nc(OCC56CCCN5CC(F)C6)nc4c3F)c12 (stereo not given) + CC(Nc1ncnc2nc[nH]c12)c1cc2cccc(Cl)c2c(=O)n1-c1ccccc1", "viability, T/C, %": 102}
{"molecule": "C[C@@H](NC(=O)c1ncnc(N)c1Cl)c1ncc(C(=O)Nc2cc(C(F)(F)F)c(Cl)cn2)s1 + CC(Nc1ncnc2nc[nH]c12)c1cc2cccc(Cl)c2c(=O)n1-c1ccccc1", "viability, T/C, %": 110}
{"molecule": "CCCS(=O)(=O)Nc1ccc(F)c(C(=O)c2c[nH]c3ncc(-c4ccc(Cl)cc4)cc23)c1F + CC(Nc1ncnc2nc[nH]c12)c1cc2cccc(Cl)c2c(=O)n1-c1ccccc1", "viability, T/C, %": 92.8}
{"molecule": "CC1(C)CCC(CN2CCN(c3ccc(C(=O)NS(=O)(=O)c4ccc(NCC5CCOCC5)c([N+](=O)[O-])c4)c(Oc4cnc5[nH]ccc5c4)c3)CC2)=C(c2ccc(Cl)cc2)C1 + CC(Nc1ccc2c(c1)OCCn1cc(N3C(=O)OCC3C(F)F)nc1-2)C(N)=O", "viability, T/C, %": 67.2}
{"molecule": "C#Cc1c(F)ccc2cc(O)cc(-c3ncc4c(N5CC6CCC(C5)N6)nc(OCC56CCCN5CC(F)C6)nc4c3F)c12 (stereo not given) + Cc1nc(NC(=O)N2CCCC2C(N)=O)sc1-c1ccnc(C(C)(C)C(F)(F)F)c1", "viability, T/C, %": 105}
